# System: Bassia scoparia (KCHSC)
# assayNotes: Post-emergence herbicidal efficacy at 320 g/ha, greenhouse pot test
# Assay type: in vivo
# assaySetup: visual rating vs untreated control after about 3 weeks
Overview of reported Post-emergence efficacy against Bassia scoparia (KCHSC) across a group of compounds:
Supply the numeric figure in %, leaving out any unit text.

Some solved cases for reference:
Cc1cc(C)c(-c2cc(C3CC3)no2)c(Oc2ncc(F)cn2)n1 [Example I-178] = 90
Cc1cc(C)c(-c2cc(C(F)F)no2)c(Oc2ccc(C#N)cn2)n1 [Example I-292] = 90
Cc1cc(C)c(-c2cc(C(F)F)no2)c(Oc2cnc(Cl)cn2)n1 [Example I-11] = 90
Cc1cc(C)c(-c2cc(C(F)F)no2)c(Oc2ncc(Cl)cn2)n1 [Example I-1] = 90

Given item Cc1cc(C)c(-n2cc(Br)cn2)c(Oc2ncc(F)cn2)n1 [Example I-277] , the value recorded as its Post-emergence efficacy against Bassia scoparia (KCHSC) is 100

---

Let's look at some compounds and their measured Pre-emergence efficacy against Viola tricolor (VIOTR).
# Tested on: Viola tricolor (VIOTR)
# assayNotes: Pre-emergence herbicide efficacy at 80 g/ha, greenhouse pot test
# Assay type: in vivo
# assaySetup: visual scoring vs untreated control after about 3 weeks
Param answer (str): number followed by unit.

Cc1cc(C)c(-c2cc(C(F)Cl)no2)c(Oc2ncc(Cl)cn2)n1 (stereo not shown) [Example I-5] = 90%

Next compound, please.
Please fill in: Pre-emergence efficacy against Viola tricolor (VIOTR) reported for Cc1cc(C)c(-n2cc(Br)cn2)c(Oc2ncc(F)cn2)n1 [Example I-277] = 100%

---

Recorded Pre-emergence efficacy against Echinochloa crus-galli (ECHCG) by entry
# System: Echinochloa crus-galli (ECHCG)
# assayNotes: Pre-emergence herbicide efficacy at 320 g/ha, greenhouse pot test
# Assay type: in vivo
# assaySetup: visual scoring vs untreated control after about 3 weeks
The reply should consist of the numeric value with the unit placed after it.

// below: answered molecules
Cc1cc(C)c(-c2cc(C(F)F)no2)c(Oc2ccc(Cl)cn2)n1 [Example I-43] = 90%
Cc1cc(C)c(-c2cc(C(F)Cl)no2)c(Oc2ncc(Cl)cn2)n1 (stereo not shown) [Example I-5] = 90%
Cc1cc(C)c(-c2cc(C(F)(F)F)on2)c(Oc2ncc(F)cn2)n1 [Example I-6] = 100%
Cc1cc(C)c(-c2cc(C3(C)CC3)no2)c(Oc2ncc(F)cn2)n1 [Example I-299] = 90%
Cc1cc(C)c(-c2cc(C(F)F)no2)c(Oc2ncc(Br)cn2)n1 [Example I-41] = 90%
Cc1cc(C)c(-n2cc(Br)cn2)c(Oc2ncc(F)cn2)n1 [Example I-277] = 100%
Cc1cc(C)c(-n2cc(I)cn2)c(Oc2ncc(F)cn2)n1 [Example I-294] = 100%
Cc1cc(C)c(-c2cc(C(F)F)no2)c(Oc2ncc(Cl)cn2)n1 [Example I-1] = 100%

Query Cc1cc(C)c(-c2cc(C(F)F)no2)c(Oc2ncc(C(F)(F)F)cn2)n1 [Example I-45] yields Pre-emergence efficacy against Echinochloa crus-galli (ECHCG) of 100%

Reported Pre-emergence efficacy against Echinochloa crus-galli (ECHCG) of Cc1cc(C)c(-n2cc(Br)cn2)c(Oc2ncc(Cl)cn2)n1 [Example I-278] : 100%

Entry Cc1cc(C)c(-c2cc(C(F)F)on2)c(Oc2ncc(Cl)cn2)n1 [Example I-10] ; Pre-emergence efficacy against Echinochloa crus-galli (ECHCG) = 100%

The measured Pre-emergence efficacy against Echinochloa crus-galli (ECHCG) associated with Cc1cc(C)c(-c2cc(C(F)F)on2)c(Oc2ncc(F)cn2)n1 [Example I-3] reads 100%

Please fill in: Pre-emergence efficacy against Echinochloa crus-galli (ECHCG) reported for Cc1cc(C)c(-c2cc(C3CC3)no2)c(Oc2ncc(Cl)cn2)n1 [Example I-179] = 100%

# Pre-emergence efficacy against Echinochloa crus-galli (ECHCG) (molecule: Cc1cc(C)c(-c2cc(C3CC3)no2)c(Oc2ncc(Br)cn2)n1 [Example I-296] ) is 90%

Pre-emergence efficacy against Echinochloa crus-galli (ECHCG) measured on Cc1cc(C)c(-n2cc(I)cn2)c(Oc2ncc(Cl)cn2)n1 [Example I-295] = 90%

// field: Pre-emergence efficacy against Echinochloa crus-galli (ECHCG); key: Cc1cc(C)c(-c2cc(C3CC3)no2)c(Oc2ncc(F)cn2)n1 [Example I-178] ; value = 100%

In plain terms, Cc1cc(C)c(-c2cc(C(F)(F)F)no2)c(Oc2ncc(Cl)cn2)n1 [Example I-2] has a documented Pre-emergence efficacy against Echinochloa crus-galli (ECHCG) of 100%

Record Cc1cc(C)c(-c2cc(CC3CC3)no2)c(Oc2ncc(F)cn2)n1 [Example I-200] . Reported Pre-emergence efficacy against Echinochloa crus-galli (ECHCG): 90%

// Pre-emergence efficacy against Echinochloa crus-galli (ECHCG) lookup, molecule = Cc1cc(C)c(-c2cc(C(F)(F)F)on2)c(Oc2ncc(Cl)cn2)n1 [Example I-7] , result: 100%

---

# Tested on: Polygonum convolvulus (POLCO)
# assayNotes: Pre-emergence herbicide efficacy at 80 g/ha, greenhouse pot test
# Type: in vivo
# assaySetup: visual scoring vs untreated control after about 3 weeks
Measured Pre-emergence efficacy against Polygonum convolvulus (POLCO) values are reported for all entries that follow.
Report the figure in % without appending any unit label.

Some solved entries appear below for comparison.
Cc1cc(C)c(-c2cc(C(F)F)no2)c(Oc2ncc(F)cn2)n1 = 90
Cc1cc(C)c(-c2cc(C(F)F)no2)c(Oc2ncc(Br)cn2)n1 = 90
Cc1cc(C)c(-c2cc(C(F)(F)F)no2)c(Oc2ncc(Cl)cn2)n1 = 80

Field: next compound
Pre-emergence efficacy against Polygonum convolvulus (POLCO) recorded for this compound, Cc1cc(C)c(-c2cc(C(F)(F)Cl)no2)c(Oc2ncc(Cl)cn2)n1 , is 90

---

# Tested on: Amaranthus retroflexus (AMARE)
# assayNotes: Post-emergence herbicidal efficacy at 320 g/ha, greenhouse pot test
# Assay type: in vivo
# assaySetup: visual rating vs untreated control after about 3 weeks
measure: Post-emergence efficacy against Amaranthus retroflexus (AMARE) (%)
// note: answer is a bare numeric in %

Cc1cc(C)c(-n2cc(Br)cn2)c(Oc2ncc(F)cn2)n1 = 100
Cc1cc(C)c(-c2cc(C(F)F)no2)c(Oc2ncc(C(F)(F)F)cn2)n1 = 100

Just so you know, measured Post-emergence efficacy against Amaranthus retroflexus (AMARE) for Cc1cc(C)c(-c2cc(C(F)F)no2)c(Oc2cnc(Cl)cn2)n1 came out at 100

---

# Tested on: Amaranthus retroflexus (AMARE)
# assayNotes: Post-emergence herbicidal efficacy at 80 g/ha, greenhouse pot test
# Assay type: in vivo
# assaySetup: visual rating vs untreated control after about 3 weeks
Post-emergence efficacy against Amaranthus retroflexus (AMARE) reference
Output spec: scalar in %, unitless text.

Here is how some molecules turned out for Post-emergence efficacy against Amaranthus retroflexus (AMARE).
Cc1cc(C)c(-c2cc(C(F)F)no2)c(Oc2ncc(Cl)cc2F)n1 [Example I-14] = 100
Cc1cc(C)c(-c2cc(C(F)F)no2)c(Oc2ncc(Br)cn2)n1 [Example I-41] = 90
Cc1cc(C)c(-c2cc(C(F)F)no2)c(Oc2ccc(F)cn2)n1 [Example I-293] = 100
Cc1cc(C)c(-c2cc(C(F)F)no2)c(Oc2ncc(F)cn2)n1 [Example I-4] = 100
Cc1cc(C)c(-n2cc(Br)cn2)c(Oc2ncc(F)cn2)n1 [Example I-277] = 80
Cc1cc(C)c(-c2cc(C(F)(F)F)on2)c(Oc2ncc(Cl)cn2)n1 [Example I-7] = 80
Cc1cc(C)c(-c2cc(C(F)F)no2)c(Oc2ncc(Cl)cn2)n1 [Example I-1] = 100
Cc1cc(C)c(-c2cc(C(F)(F)F)no2)c(Oc2ncc(Cl)cn2)n1 [Example I-2] = 100

Query Cc1cc(C)c(-c2cc(C(F)F)no2)c(Oc2ncc(C(F)(F)F)cn2)n1 [Example I-45] on Amaranthus retroflexus (AMARE); Post-emergence efficacy against Amaranthus retroflexus (AMARE) returned: 80

---

# Tested on: Viola tricolor (VIOTR)
# assayNotes: Pre-emergence herbicide efficacy at 80 g/ha, greenhouse pot test
# Format: in vivo
# assaySetup: visual scoring vs untreated control after about 3 weeks
measure: Pre-emergence efficacy against Viola tricolor (VIOTR) (%)
Use % as the unit, but write only the number.

Solved cases (5 shown):
Cc1cc(C)c(-c2cc(C(F)F)on2)c(Oc2ncc(Cl)cn2)n1 = 100
Cc1cc(C)c(-c2cc(C(F)F)no2)c(Oc2ncc(Br)cn2)n1 = 80
Cc1cc(C)c(-c2cc(C(F)F)no2)c(Oc2ncc(Cl)cn2)n1 = 90
Cc1cc(C)c(-n2cc(I)cn2)c(Oc2ncc(F)cn2)n1 = 100
Cc1cc(C)c(-c2cc(C(F)F)no2)c(Oc2ncc(F)cn2)n1 = 100

Lab book: Pre-emergence efficacy against Viola tricolor (VIOTR) of Cc1cc(C)c(-c2cc(C(F)F)no2)c(Oc2ncc(C(F)(F)F)cn2)n1 noted as 90

# Pre-emergence efficacy against Viola tricolor (VIOTR) (molecule: Cc1cc(C)c(-c2cc(C(F)F)no2)c(Oc2ccc(C#N)cn2)n1 ) is 90

Recorded result, Cc1cc(C)c(-c2cc(C(F)F)on2)c(Oc2ncc(F)cn2)n1 , Pre-emergence efficacy against Viola tricolor (VIOTR): 100

The recorded Pre-emergence efficacy against Viola tricolor (VIOTR) for entry Cc1cc(C)c(-c2cc(C(F)(F)F)no2)c(Oc2ncc(Cl)cn2)n1 equals 90

Cc1cc(C)c(-c2cc(C(F)(F)Cl)no2)c(Oc2ncc(Cl)cn2)n1 yielded Pre-emergence efficacy against Viola tricolor (VIOTR) of 90

The value of Pre-emergence efficacy against Viola tricolor (VIOTR) measured for the molecule Cc1cc(C)c(-c2cc(C(F)F)no2)c(Oc2ncc(Cl)cc2F)n1 turned out to be 100

get_value(item= Cc1cc(C)c(-c2cc(C(F)(F)F)on2)c(Oc2ncc(Cl)cn2)n1 , readout=Pre-emergence efficacy against Viola tricolor (VIOTR)) returns 100

So, Cc1cc(C)c(-c2cc(C(F)F)no2)c(Oc2ccc(F)cn2)n1 ? Its Pre-emergence efficacy against Viola tricolor (VIOTR) was 90

The measured Pre-emergence efficacy against Viola tricolor (VIOTR) associated with Cc1cc(C)c(-c2cc(C(F)F)no2)c(Oc2ccc(Cl)cn2)n1 reads 80
